- Test summary: NCI Yeast Anticancer Drug Screen. Data for the sgs1 mgt1 strain (AID 161)
- Run parameters: S. cerevisiae sgs1 mgt1 strain, at 50.0 µM (retest, dose inferred, filed as 5.0)
The panel holds about 79,000 compounds, 15% with a hit somewhere; the sample as a whole holds those more often. Active and inactive are the calls of the source. Rule as the data show it: active = growth inhibition above about 70%; inactive = the rest.
Tick one outcome: active, inactive

Which result was noted for this molecule in the test: CCOC(=O)/C(C#N)=C/c1ccccc1Br
inactive

Next: Nc1nc(N)c(-c2cccc(C(F)(F)F)c2)c(Cc2cccc(C(F)(F)F)c2)n1
active

Same for Cc1cc(C(O)(C(F)(F)F)C(F)(F)F)cc(C(O)(C(F)(F)F)C(F)(F)F)c1
active

Now consider O=C1c2ccccc2-c2cc([N+](=O)[O-])c([N+](=O)[O-])cc21 .
active

Do the same for O=C(c1ccccc1)c1ccc2c(c1)CCCC2 please
inactive

Lookup COC(=O)c1ccc(SCCC(=O)CCl)cc1
active

Now this one: CC(NNC(=S)N1CCCC1)c1ccccn1 (stereo not drawn)
active

And for CCOC(=O)/C(=N/NS(=O)(=O)c1c(C)cc(C)cc1C)c1ccco1 ?
inactive

Likewise for C=CCNC(=O)NC(=O)CSC1=NNC2(C(=O)N1)c1ccccc1-c1ccccc12 ?
active

What do we get for CCCCCCCCNC(=O)C(Cl)Cl ?
inactive

And CN(c1ccccc1)N(C)c1ccccc1 ?
inactive

Repeat for the following molecule: N/C(=N\N=C\c1cc(I)cc(I)c1O)NO
active

Now the molecule CC1=CC(=O)CC(c2ccccc2)C1 (stereo not drawn)
active
